MEASUREMENT TYPE: glass transition temperature (°C)

*c1ccc(Oc2ccc(C(=O)c3ccc(Oc4ccc(-c5c6c(c(*)c7ccccc57)C(=O)N(c5ccccc5C(F)(F)F)C6=O)cc4)cc3)cc2)cc1 (repeat unit)	260.00

[P] *c1cccc(N2C(=O)c3ccc(Oc4c(C)cc(-c5cc(C)c(Oc6ccc7c(c6)C(=O)N(*)C7=O)c(C)c5)cc4C)cc3C2=O)c1 (repeat unit)
[Q] *Oc1ccc(/C=C2\CC/C(=C\c3ccc(OC(=O)c4ccc(/N=C/c5ccc(/C=N/c6ccc(C(*)=O)cc6)cc5)cc4)cc3)C2=O)cc1 (repeat unit)
Would you let me know which has the greater glass transition temperature value, P or Q ? Please identify the chosen entry by its label.
P
(P: 295.00 °C, Q: 205.00 °C)

====

MEASUREMENT TYPE: glass transition temperature (°C)

*c1ccc(Oc2ccc3ccccc3c2-c2c(Oc3ccc(N4C(=O)c5ccc(NC(=O)Nc6cccc(NC(=O)Nc7ccc8c(c7)C(=O)N(*)C8=O)n6)cc5C4=O)cc3)ccc3ccccc23)cc1 (repeat unit)	283.00
*c1c(C)cc(C)c(N2C(=O)c3ccc(-c4ccc5c(c4)C(=O)N(*)C5=O)cc3C2=O)c1C (repeat unit)	385.00
*C(=O)c1ccc2c(c1)C(=O)N(c1cccc(C(c3ccccc3)(c3cccc(N4C(=O)c5ccc(*)cc5C4=O)c3)C(F)(F)F)c1)C2=O (repeat unit)	311.00

====

MEASUREMENT TYPE: glass transition temperature (°C)

Answered examples (6):
*CC(*)C(=O)OCCCCCCOc1ccc(/N=N/c2ccc([N+](=O)[O-])cc2)cc1 (repeat unit)	35.80
*c1ccc2c(c1)C(=O)N(c1ccc(N(C)CCN(C)c3ccc(N4C(=O)c5ccc(C(*)(C(F)(F)F)C(F)(F)F)cc5C4=O)cc3)cc1)C2=O (repeat unit)	227.00
*C(=O)Nc1ccc(Oc2ccc(C(C)(C)c3ccc(Oc4ccc(NC(=O)c5ccc6c(c5)C(=O)N(c5ccc(Oc7ccc8ccc(Oc9ccc(N%10C(=O)c%11ccc(*)cc%11C%10=O)cc9)cc8c7)cc5)C6=O)cc4)cc3)cc2)cc1 (repeat unit)	250.00
*C(=O)c1cc(C(=O)c2ccc3c(c2)C(=O)N(c2ccc(Oc4ccc(S(=O)(=O)c5ccc(Oc6ccc(N7C(=O)c8ccc(*)cc8C7=O)cc6)cc5)cc4)cc2)C3=O)cc(-c2ccccc2)c1 (repeat unit)	256.50
*c1cc(Br)c(OC(=O)c2ccc(C(=O)Oc3c(Br)cc(C4(*)OC(=O)c5ccccc54)cc3Br)cc2)c(Br)c1 (repeat unit)	319.00
*Oc1c(C)cc(C2(c3cc(C)c(Oc4ccc(C(=O)c5cccc(C(=O)c6ccc(*)cc6)c5)cc4)c(C)c3)c3ccccc3-c3ccccc32)cc1C (repeat unit)	229.00

[A] *CCCNC(=O)CNC(=O)C(NC(=O)C(Cc1ccccc1)NC(=O)CCCCCCCCC(=O)NC(Cc1ccccc1)C(=O)NC(C(=O)NCC(=O)NCCCOCCOCCO*)C(C)C)C(C)C (repeat unit)
[B] *c1ccc(Oc2ccc(Oc3ccc(N4C(=O)CC(=O)N(*)C4=S)cc3)cc2)cc1 (repeat unit)
[C] *C(=O)c1cc2c(cc1Cl)C(=O)N(c1c(C)cc(C)c(N3C(=O)c4cc(*)c(Cl)cc4C3=O)c1C)C2=O (repeat unit)
[D] *c1ccc(Cc2ccc(N3C(=O)c4ccc([Si](C)(C)O[Si](C)(C)c5ccc6c(c5)C(=O)N(*)C6=O)cc4C3=O)cc2)cc1 (repeat unit)
Which order do these items take when sorted by rising glass transition temperature? List them. Record the ranking as a list of labels in the requested order.
A, B, D, C
(A: 58.00 °C, B: 157.00 °C, D: 232.00 °C, C: 371.00 °C)

[A] *Oc1ccc(C(C)(C)c2ccc(Oc3ccc(C(=O)c4ccc(*)cc4)cc3)cc2)cc1 (repeat unit)
[B] *C(=O)c1ccc2c(c1)C(=O)N(c1ccc(C(=O)c3ccccc3N3C(=O)c4ccc(*)cc4C3=O)cc1)C2=O (repeat unit)
Quick check, higher glass transition temperature between A and B ? Bench note: the answer is the label of the chosen record.
B
